tested on: RXF 393 renal; assay: NCI tumour cell line growth inhibition, 48 h
attribute.measured: GI50

| entry.smiles | GI50 |
| --- | --- |
| Nc1c(C(=O)c2cccc(-c3ccncc3)c2)cnn1-c1ccc(F)cc1 | > 25 µM |
| Oc1ccc(Cl)cc1-c1cc(-c2ccc(Cl)cc2)n[nH]1 | 6.01 µM |
| COc1ccc2[nH]c(=O)c(/C=C/C(=O)c3ccccc3OC)cc2c1 | 1.02 µM |
| CC(C)CNC(=O)c1ccc(NC(=O)N(CC(C)C)C(=O)c2ccc(N)c(OCCCN)c2)c(OCCCN=C(N)N)c1 | > 62.5 µM |
| O=C(Cc1ccc(OCc2ccccc2)cc1)NCc1ccc2c(c1)OCO2 | 5.18 µM |

Shifting focus to the molecule that follows.
Exercise: What does the data say about its GI50? Entry: O=c1c2[nH]ccc2nc2n1CCS2
Solution: > 100 µM

====

We begin with a simple list: items and their reported TGI.
test system: HCT-116 colon; assay: NCI tumour cell line growth inhibition, 48 h
Number in µM, nothing else.

Worked examples, 4 compounds total:
| compound | TGI (µM) |
| --- | --- |
| CC(=O)O[C@H](C[C@@H](C)[C@H]1C(=O)[C@H](O)[C@@]2(C)C3CC[C@H]4C(C)(C)[C@@H](OC5OCC(O)C(O)C5O)CC[C@@]45C[C@@]35CC[C@]12C)[C@@H]1OC1(C)C (stereo partly drawn) | 38 |
| C/C(=C\C(=N\N=C(N)N)c1ccc(Cl)cc1)c1ccc(Cl)cc1 | 0.712 |
| O=c1oc2ccccc2c(O)c1/C=N\c1nc(-c2ccc(O)c(O)c2)cs1 | 7.61 |
| COc1ccc2[nH]c(=O)c(/C=C/C(=O)c3ccccc3OC)cc2c1 | 1.48 |

Exercise: What does the data say about its TGI? Entry: CCN1CCN(Cc2ccc(NC(=O)c3nc4ccc5[nH]ncc5c4c4c3CCCC4)cc2C(F)(F)F)CC1
Solution: 1.7

Exercise: What does the data say about its TGI? Entry: S=C1Cc2cc3ccccc3nc2-c2ccccc2N1
Solution: 30.8

Exercise: What does the data say about its TGI? Entry: C1CCC(C(CC2CCCCN2)C2CCCCC2)CC1 (stereo not drawn)
Solution: 3.14

Exercise: What does the data say about its TGI? Entry: O=C(Nc1ccc(Cl)cc1)/C(=C(/[O-])c1ccc(Br)cc1)[n+]1cccc(-c2ccc(Cl)cc2)n1
Solution: 13

Exercise: What does the data say about its TGI? Entry: c1ccc(-c2nc([P+](c3ccccc3)(c3ccccc3)c3ccccc3)c(N3CCOCC3)o2)cc1
Solution: 10.7

Exercise: What does the data say about its TGI? Entry: N=C(N)c1ccc(-c2ccc(-c3cccs3)o2)cc1
Solution: 3.23

Exercise: What does the data say about its TGI? Entry: CC/C=C/c1cc2c(c3[nH]ccc13)[C@@H](C)CC2C (stereo partly drawn) (tested in a mixture with another compound)
Solution: 33.8

Exercise: What does the data say about its TGI? Entry: Cc1cnc(NC2CCOCC2)nc1-n1cnc(C(=O)N[C@H](CN)c2cc(F)cc(Cl)c2)c1
Solution: 12.4

====

We begin with a simple list: items and their reported TGI.
test system: T-47D breast; assay: NCI tumour cell line growth inhibition, 48 h
Where a SMILES comes first, the peptide text is derived from it. [ ]: non-standard residue; d: D form. The star is where a group is joined. ξ: configuration not given here. NMeF = CN[C@@H](Cc1ccccc1)C(=O)O; NMeN = CN[C@@H](CC(N)=O)C(=O)O; NMeV = CN[C@H](C(=O)O)C(C)C; ξNMeV = CNC(C(=O)O)C(C)C; Boc = CC(C)(C)OC(=O)*; ξNMeA = CNC(C)C(=O)O; ξV = CC(C)C(N)C(=O)O
Number in µM, nothing else.

Worked examples, 3 compounds total:
| compound | numeric.readout |
| --- | --- |
| COc1cc(/C=C\c2cc(/C=C\c3ccc(O)c(OC)c3)n(C(=O)COc3ccccc3)n2)ccc1O | 6.95 |
| COC(=O)C(C)N(C)C(=O)[C@H](CC(N)=O)N(C)C(=O)[C@@H]1CCCN1C(=O)[C@H](C(C)C)N(C)C(=O)C(C(C)C)N(C)C(=O)[C@H](Cc1ccccc1)N(C)C(=O)C(NC(=O)OC(C)(C)C)C(C)C (some centres not stated) (Boc-[ξV][NMeF][ξNMeV][NMeV]P[NMeN][ξNMeA]-OMe) | 50 |
| COC(=O)[C@]12CC[C@@H](C(=O)/C=C/c3cccnc3)[C@@H]1[C@H]1CC[C@@H]3[C@@]4(C)C/C(=C/c5cccnc5)C(=O)C(C)(C)[C@@H]4CC[C@@]3(C)[C@]1(C)CC2 | 2.42 |

Exercise: What does the data say about its TGI? Entry: CCN1CCN(Cc2ccc(NC(=O)c3nc4ccc5[nH]ncc5c4c4c3CCCC4)cc2C(F)(F)F)CC1
Solution: 1.92
